molecular target: Induced myeloid leukemia cell differentiation protein Mcl-1 (Homo sapiens, UniProt Q07820); test: Inhibition of FITC-labeled Bim BH3 binding to GST-tagged Mcl-1 (unknown origin) preincubated for 2 mins followed by FITC-Bim-BH3 addition measured after 10 mins by fluorescence polarization assay
Sequence (Q07820 whole entry): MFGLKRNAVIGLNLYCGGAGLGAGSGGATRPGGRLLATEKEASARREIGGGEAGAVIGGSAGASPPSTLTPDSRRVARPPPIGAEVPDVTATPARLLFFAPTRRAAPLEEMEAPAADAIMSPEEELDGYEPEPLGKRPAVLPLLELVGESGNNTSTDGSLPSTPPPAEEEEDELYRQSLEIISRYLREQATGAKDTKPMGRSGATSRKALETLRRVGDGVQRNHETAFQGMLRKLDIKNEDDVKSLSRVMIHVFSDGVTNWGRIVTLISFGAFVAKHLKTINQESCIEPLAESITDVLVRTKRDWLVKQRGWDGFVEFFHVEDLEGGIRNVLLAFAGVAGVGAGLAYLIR
pIC50: −log10 of the molar value.
property_name: pIC50

>>> print(df.to_string())
                                smiles_text  numeric_value
0  CC1=C(C2=C(C)C(=O)c3c(cc(O)c(O)c3Cc3ccccc3)C2=O)C(=O)c2cc(O)c(O)c(Cc3ccccc3)c2C1=O           7.60

* * *

target: Bcl-2-like protein 1 (Homo sapiens); experiment: Inhibition of FITC-BID BH3 peptide binding to recombinant GST-tagged C-terminal truncated Bcl-xL (unknown origin) expressed in Escherichia coli BL21 (DE3) after 5 mins by fluorescence polarization assay
Sequence (Q07817 whole entry, the tested form may be a part): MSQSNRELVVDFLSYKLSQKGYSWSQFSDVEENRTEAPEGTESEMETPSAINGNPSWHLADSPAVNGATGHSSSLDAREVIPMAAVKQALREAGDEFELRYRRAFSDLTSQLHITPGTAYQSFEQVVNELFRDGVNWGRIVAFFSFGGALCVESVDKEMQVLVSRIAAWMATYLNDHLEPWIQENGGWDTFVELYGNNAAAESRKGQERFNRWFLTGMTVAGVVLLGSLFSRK
property_name: IC50

>>> df
                                smiles_text  property_name   result
0  Cc1cs/c(=N\C2CCCCC2)n1/N=C/c1cc(O)c(O)c(O)c1           IC50  > 50 µM

The values you see were collected from ChEMBL document CHEMBL4052581.
